- protocolSummary: Selectivity index, ratio of Ki for recombinant Plasmodium falciparum dUTPase K96A mutant expressed in Escherichia coli BL21(DE3) cells to Ki for human dUTPase
Measured Ratio Ki by item
I'd appreciate a reply containing only the number, no unit.

Look over these answered cases.
Quick one: Ratio Ki of O=c1ccn([C@H]2C[C@H](F)[C@@H](COC(c3ccccc3)(c3ccccc3)c3ccccc3)O2)c(=O)[nH]1 ? 95

Query O=c1ccn(CCC(CO)CNC(c2ccccc2)(c2ccccc2)c2ccccc2)c(=O)[nH]1 (centres undefined) next 142

***
Quick one: Ratio Ki of O=c1ccn([C@H]2C=C[C@@H](COC(c3ccccc3)(c3ccccc3)c3ccccc3)O2)c(=O)[nH]1 ? 402

###

- protocolSummary: Selectivity index, ratio of Ki for recombinant Plasmodium falciparum dUTPase I117A mutant expressed in Escherichia coli BL21(DE3) cells to Ki for human dUTPase
reportedMetric: Ratio Ki

Look over these answered cases.
Quick one: Ratio Ki of O=c1ccn([C@H]2C=C[C@@H](COC(c3ccccc3)(c3ccccc3)c3ccccc3)O2)c(=O)[nH]1 ? 98

Query O=c1ccn(CCCNC(c2ccccc2)(c2ccccc2)c2ccccc2)c(=O)[nH]1 next 2.4

Query O=c1ccn([C@H]2C[C@H](F)[C@@H](COC(c3ccccc3)(c3ccccc3)c3ccccc3)O2)c(=O)[nH]1 next 1.1

Query O=c1ccn([C@H]2C[C@H](O)[C@@H](CNC(c3ccccc3)(c3ccccc3)c3ccccc3)O2)c(=O)[nH]1 next 35

Query O=c1ccn(C/C=C/COC(c2ccccc2)(c2ccccc2)c2ccccc2)c(=O)[nH]1 next > 1250

Query O=c1ccn(COCCOC(c2ccccc2)(c2ccccc2)c2ccccc2)c(=O)[nH]1 next 2.1

***
Quick one: Ratio Ki of O=c1ccn(CCCCCCNC(c2ccccc2)(c2ccccc2)c2ccccc2)c(=O)[nH]1 ? > 227

Query O=c1ccn(CCC(CO)CNC(c2ccccc2)(c2ccccc2)c2ccccc2)c(=O)[nH]1 (centres undefined) next 21

Query CC(C)(C)[Si](OC[C@@H]1C=C[C@H](n2ccc(=O)[nH]c2=O)O1)(c1ccccc1)c1ccccc1 next > 1250

###

- targetUnderTest: dUTP pyrophosphatase (Plasmodium falciparum 3D7, UniProt Q8II92, I117A)
- Sequence (Q8II92 whole entry I117A): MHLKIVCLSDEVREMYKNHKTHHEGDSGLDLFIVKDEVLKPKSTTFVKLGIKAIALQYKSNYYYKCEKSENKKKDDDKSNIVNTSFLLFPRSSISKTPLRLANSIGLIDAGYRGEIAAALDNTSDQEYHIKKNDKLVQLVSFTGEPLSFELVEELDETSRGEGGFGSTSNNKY
- protocolSummary: Inhibition of recombinant Plasmodium falciparum dUTPase I117A mutant expressed in Escherichia coli BL21(DE3) cells using dUTP as substrate by spectrophotometric analysis
Measured pKi by item
Please treat pKi as minus the base-10 logarithm of the molar concentration.

Look over these answered cases.
Quick one: pKi of CC(C)(C)[Si](OC[C@@H]1C=C[C@H](n2ccc(=O)[nH]c2=O)O1)(c1ccccc1)c1ccccc1 ? 6.10

Query O=c1ccn([C@H]2C[C@H](O)[C@@H](CNC(c3ccccc3)(c3ccccc3)c3ccccc3)O2)c(=O)[nH]1 next 5.89

// moving on: another record for pKi
Quick one: pKi of O=c1ccn(C/C=C/COC(c2ccccc2)(c2ccccc2)c2ccccc2)c(=O)[nH]1 ? 6.10

###

- targetUnderTest: dUTP pyrophosphatase (Plasmodium falciparum 3D7, UniProt Q8II92, K96A)
- Sequence (Q8II92 whole entry K96A): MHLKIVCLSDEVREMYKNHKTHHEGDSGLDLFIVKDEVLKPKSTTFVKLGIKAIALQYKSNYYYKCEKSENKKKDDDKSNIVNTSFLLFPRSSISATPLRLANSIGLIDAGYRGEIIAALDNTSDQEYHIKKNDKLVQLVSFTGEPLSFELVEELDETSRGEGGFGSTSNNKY
- protocolSummary: Inhibition of recombinant Plasmodium falciparum dUTPase K96A mutant expressed in Escherichia coli BL21(DE3) cells using dUTP as substrate by spectrophotometric analysis
reportedMetric: Ki
Form entry: enter the amount, then its unit.

Look over these answered cases.
Quick one: Ki of O=c1ccn(CCCCCCNC(c2ccccc2)(c2ccccc2)c2ccccc2)c(=O)[nH]1 ? 150 nM

Query O=c1ccn(C/C=C/COC(c2ccccc2)(c2ccccc2)c2ccccc2)c(=O)[nH]1 next 90 nM

***
Quick one: Ki of O=c1ccn([C@H]2C[C@H](O)[C@@H](CNC(c3ccccc3)(c3ccccc3)c3ccccc3)O2)c(=O)[nH]1 ? 110 nM
